Where these numbers come from: paper PMC12652113

# assayedTarget: human serum albumin (HSA) (Homo sapiens, UniProt P02768)
# Sequence (P02768 25-609): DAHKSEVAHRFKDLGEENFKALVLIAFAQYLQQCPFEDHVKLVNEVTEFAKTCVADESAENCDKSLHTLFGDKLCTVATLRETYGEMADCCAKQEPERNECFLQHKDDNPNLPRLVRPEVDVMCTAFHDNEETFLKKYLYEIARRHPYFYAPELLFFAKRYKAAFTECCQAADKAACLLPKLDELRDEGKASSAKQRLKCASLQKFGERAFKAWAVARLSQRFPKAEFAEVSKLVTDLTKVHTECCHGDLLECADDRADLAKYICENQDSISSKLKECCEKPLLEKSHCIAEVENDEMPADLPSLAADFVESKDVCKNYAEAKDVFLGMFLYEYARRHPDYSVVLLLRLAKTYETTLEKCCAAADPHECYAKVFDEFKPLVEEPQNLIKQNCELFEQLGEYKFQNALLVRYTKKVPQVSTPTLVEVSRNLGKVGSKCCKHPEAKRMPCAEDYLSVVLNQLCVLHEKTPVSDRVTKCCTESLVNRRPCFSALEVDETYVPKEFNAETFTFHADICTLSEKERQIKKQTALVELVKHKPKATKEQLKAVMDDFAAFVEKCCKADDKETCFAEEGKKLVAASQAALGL
# experiment: Fluorometric squaraine-albumin binding titration
# measurementContext: HSA detection, DL=3σ/S
# Description: For fluorometric experiments, the squaraine stock solutions were initially prepared in dimethylformamide and subsequently diluted with phosphate buffer for the protein–dye interaction analysis. […] Fluorescence intensities of the resulting solutions were recorded after 0, 3, and 24 h of incubation with the protein. […] Quantification and detection limits (QL and DL, respectively) were determined from a calibration curve of maximum fluorescence intensity against protein concentration. […]
Below is a list of entries, each paired with its recorded detection limit (DL) value.
Give the value in nM but do not write nM after it.

mol: CNC1=C(C=C2N(CCCc3ccccc3)c3ccccc3C2(C)C)C(=O)C1=CC1=[N+](CCCc2ccccc2)c2ccccc2C1(C)C.[I-]
detection limit (DL) / nM: 420
--
mol: CC1(C)C(=CC2=C([O-])C(=CC3=[N+](CCCc4ccccc4)c4ccccc4C3(C)C)C2=O)N(CCCc2ccccc2)c2ccccc21
detection limit (DL) / nM: 266
--
mol: CC1(C)C(=CC2=C(N)C(=CC3=[N+](CCCc4ccccc4)c4ccccc4C3(C)C)C2=O)N(CCCc2ccccc2)c2ccccc21.[I-]
detection limit (DL) / nM: 324

Exercise: # query: detection limit (DL) of entry CC1(C)C(=CC2=C(NCc3ccc4ccc5cccc6ccc3c4c56)C(=CC3=[N+](CCCc4ccccc4)c4ccccc4C3(C)C)C2=O)N(CCCc2ccccc2)c2ccccc21.[I-]
Solution: 361
